Here the recorded Ht is given for each entry.
species: Rattus norvegicus; test: Open TG-GATES - Regimen: Daily Repeat; assay type: toxicity, organism-based, Sprague-Dawley; parameters: regimen Daily Repeat, gender Male, age 6 weeks; settings: in vivo, po, 0 mg/kg, 72 h, tissue Blood, route gavage, dose level Control, time 3 day
resultType: Ht (%)

| compound | val |
| --- | --- |
| C=CCO | 39.6 |
| Cn1c(=O)c2c(ncn2C)n(C)c1=O | 39.9 |
| COc1ccc(Cl)cc1C(=O)NCCc1ccc(S(=O)(=O)NC(=O)NC2CCCCC2)cc1 [GLYBURIDE] | 39.9 |
| O=P1(N(CCCl)CCCl)NCCCO1 (stereo not given) [CYCLOPHOSPHAMIDE ANHYDROUS] | 40.1 |
| O=C1NC(=O)C(c2ccccc2)(c2ccccc2)N1 | 39 |
